target: porcine gastric H+/K+-ATPase (Sus scrofa, UniProt P19156); construct: prepared from mucous membrane in fresh porcine stomachs by homogenization; experiment: Ion-tight porcine gastric H+/K+-ATPase inhibition; conditions: ion-tight gastric vesicles, 150 mM KCl, valinomycin, pH 7.4, 37° C.
Sequence (P19156 2-1034 limits assumed): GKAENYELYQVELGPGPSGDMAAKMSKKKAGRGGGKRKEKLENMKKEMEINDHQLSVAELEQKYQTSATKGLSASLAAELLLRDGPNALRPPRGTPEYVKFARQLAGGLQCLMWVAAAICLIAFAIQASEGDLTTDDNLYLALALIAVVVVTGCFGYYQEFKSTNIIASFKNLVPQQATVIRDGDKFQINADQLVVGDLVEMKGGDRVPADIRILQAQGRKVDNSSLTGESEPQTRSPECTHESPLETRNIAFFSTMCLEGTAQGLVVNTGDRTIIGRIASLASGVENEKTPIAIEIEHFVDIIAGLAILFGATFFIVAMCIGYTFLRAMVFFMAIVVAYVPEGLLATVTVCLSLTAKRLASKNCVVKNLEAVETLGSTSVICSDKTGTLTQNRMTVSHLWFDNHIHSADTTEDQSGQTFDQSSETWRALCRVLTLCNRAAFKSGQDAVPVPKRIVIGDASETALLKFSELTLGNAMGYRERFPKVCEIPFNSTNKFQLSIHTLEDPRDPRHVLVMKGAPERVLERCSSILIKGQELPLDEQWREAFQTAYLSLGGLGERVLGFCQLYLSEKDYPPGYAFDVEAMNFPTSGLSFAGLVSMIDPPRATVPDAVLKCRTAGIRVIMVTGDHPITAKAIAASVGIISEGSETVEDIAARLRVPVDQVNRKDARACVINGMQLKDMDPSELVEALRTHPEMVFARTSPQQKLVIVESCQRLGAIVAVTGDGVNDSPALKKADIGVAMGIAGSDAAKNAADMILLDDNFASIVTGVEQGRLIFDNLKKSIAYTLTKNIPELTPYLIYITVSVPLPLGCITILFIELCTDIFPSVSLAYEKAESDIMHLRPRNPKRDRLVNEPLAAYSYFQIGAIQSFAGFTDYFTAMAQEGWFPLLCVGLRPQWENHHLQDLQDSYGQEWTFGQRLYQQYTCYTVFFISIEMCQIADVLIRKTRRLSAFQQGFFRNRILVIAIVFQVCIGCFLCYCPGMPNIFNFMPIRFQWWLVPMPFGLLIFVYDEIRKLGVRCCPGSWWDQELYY
Sequence (P18434 whole entry partner): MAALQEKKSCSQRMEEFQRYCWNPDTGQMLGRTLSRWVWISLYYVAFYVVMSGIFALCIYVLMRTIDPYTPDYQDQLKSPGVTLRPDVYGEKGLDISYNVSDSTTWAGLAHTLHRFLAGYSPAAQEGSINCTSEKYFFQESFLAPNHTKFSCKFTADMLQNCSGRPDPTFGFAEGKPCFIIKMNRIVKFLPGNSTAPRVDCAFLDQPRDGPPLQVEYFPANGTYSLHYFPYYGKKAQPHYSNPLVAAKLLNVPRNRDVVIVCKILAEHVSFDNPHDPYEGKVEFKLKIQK
ENDPOINT: log10 IC50 (log10 of the value in nM)
Quick note: numbers are log10 of IC50, with nM as the unit.

The examples below pair each entry with its known result.
COMPOUND	EXPERIMENTAL_SYSTEM	READING
Cc1nc2c(OC3CCOc4cccc(F)c43)cc(C(=O)N(C)C)cc2n1C (single isomer, unassigned; (+)) [Example 18]	porcine gastric H+/K+-ATPase (Sus scrofa, UniProt P19156)	2.38
Cc1nc2c(OC3CCOc4cc(F)cc(F)c43)cc(C(=O)N3CCC3)cc2n1C (single isomer, unassigned; (+)) [Example 24]	porcine gastric H+/K+-ATPase (Sus scrofa, UniProt P19156)	2.79
Cc1nc2c(OC3CCOc4cc(F)cc(F)c43)cc(C(=O)N3CCC3)cc2n1C (single isomer, unassigned; (-)) [Example 23]	porcine gastric H+/K+-ATPase (Sus scrofa, UniProt P19156)	2.64
Cc1nc2c(OC3CCOc4cc(F)ccc43)cc(C(=O)N(C)C)cc2n1C (single isomer, unassigned; (+)) [Example 4]	porcine gastric H+/K+-ATPase (Sus scrofa, UniProt P19156)	2.64
Cc1nc2c(OC3COCc4ccccc43)cc(C(=O)N(C)C)cc2n1C (stereo not drawn)	porcine gastric H+/K+-ATPase (Sus scrofa, UniProt P19156)	2.51
Cc1nc2c(OC3CCOc4cc(F)cc(F)c43)cc(C(=O)N3CCC3)cc2n1C (racemic) [Example 22]	porcine gastric H+/K+-ATPase (Sus scrofa, UniProt P19156)	2.26
CNC(=O)c1cc(OC2CCOc3cc(F)cc(F)c32)c2nc(C)n(C)c2c1 (single isomer, unassigned; (-)) [Example 20]	porcine gastric H+/K+-ATPase (Sus scrofa, UniProt P19156)	2.79
Cc1nc2c(OC3CCOc4cccc(F)c43)cc(C(=O)N(C)C)cc2n1C (single isomer, unassigned; (-)) [Example 17]	porcine gastric H+/K+-ATPase (Sus scrofa, UniProt P19156)	2.53
Cc1nc2c(OC3CCOc4cccc(F)c43)cc(C(=O)N(C)C)cc2n1C (racemic) [Example 9]	porcine gastric H+/K+-ATPase (Sus scrofa, UniProt P19156)	2.98
CNC(=O)c1cc(OC2CCOc3cc(F)cc(F)c32)c2nc(C)n(C)c2c1 (single isomer, unassigned; (+)) [Example 21]	porcine gastric H+/K+-ATPase (Sus scrofa, UniProt P19156)	2.69

# input compound: Cc1nc2c(OC3CCOc4ccccc43)cc(C(=O)N(C)CCO)cc2n1C (stereo not drawn) ; wanted: its log10 IC50
2.63

# input compound: Cc1nc2c(OC3CCOc4ccccc43)cc(C(=O)N3CCN(C)CC3)cc2n1C (stereo not drawn) ; wanted: its log10 IC50
2.98

# input compound: Cc1nc2c(OC3CCOc4ccccc43)cc(C(=O)N3CC[C@H](O)C3)cc2n1C (stereo partly drawn) ; wanted: its log10 IC50
2.83

# input compound: Cc1cccc2c1C(Oc1cc(C(=O)N(C)C)cc3c1nc(C)n3C)CCO2 (stereo not drawn) ; wanted: its log10 IC50
2.26

# input compound: Cc1nc2c(OC3CCOc4cc(F)cc(F)c43)cc(C(=O)N(C)C)cc2n1C (racemic) [Example 5] ; wanted: its log10 IC50
1.95
